molecular target: TEAD1-GFP in HEK293A cells (Homo sapiens (Human), UniProt P28347); test: TEAD1 protein abundance flow cytometry assay in HEK293A; assay type: cell-based; conditions: HEK293A TEAD1-GFP-CHYSEL-mCherry sensor cells, 24 h, GFP signal by flow cytometry
Sequence (P28347 whole entry): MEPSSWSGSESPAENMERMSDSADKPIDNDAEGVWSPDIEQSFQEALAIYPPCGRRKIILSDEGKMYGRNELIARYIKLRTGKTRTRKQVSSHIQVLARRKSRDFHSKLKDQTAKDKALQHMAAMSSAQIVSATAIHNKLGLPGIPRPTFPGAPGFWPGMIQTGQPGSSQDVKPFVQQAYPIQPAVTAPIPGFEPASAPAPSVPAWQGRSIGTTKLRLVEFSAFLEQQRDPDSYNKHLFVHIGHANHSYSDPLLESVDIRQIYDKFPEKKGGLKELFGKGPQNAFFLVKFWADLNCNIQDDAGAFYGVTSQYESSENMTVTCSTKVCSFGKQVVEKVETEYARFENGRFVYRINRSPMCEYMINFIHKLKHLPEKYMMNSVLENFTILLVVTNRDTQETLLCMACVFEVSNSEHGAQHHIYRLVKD
readout: DC50 (nM)

Below, each entry is followed by its recorded DC50 result.
compound	DC50 / nM
COc1ccc(C(=O)N2CCC(CC3CCN(CCNC(=O)[C@H]4CC[C@H](NC[C@]5(c6ccccc6)Oc6cc(F)c(Cl)c(-c7c(C(N)=O)ccc(OC)c7F)c6[C@@H]5C)CC4)CC3)CC2)cc1N1CCC(=O)NC1=O (atropisomer, axis not shown)	3
COc1ccc(C(N)=O)c(-c2c(Cl)c(F)cc3c2[C@H](C)[C@@](CN[C@H]2CC[C@H](C(=O)N4CCC(CC5CCN(CCn6cccc(CN7CCC(=O)NC7=O)c6=O)CC5)CC4)CC2)(c2ccccc2)O3)c1F (atropisomer, axis not shown)	3

[P] COc1ccc(C(=O)N2CCC(OC3CCN(C(=O)[C@H]4CC[C@H](NC[C@]5(c6ccccc6)Oc6cc(F)c(Cl)c(-c7c(C(N)=O)ccc(OC)c7F)c6[C@@H]5C)CC4)CC3)CC2)cc1N1CCC(=O)NC1=O (atropisomer, axis not shown)
[Q] COc1ccc(C(N)=O)c(-c2c(Cl)c(F)cc3c2[C@H](C)[C@@](CN[C@H]2CC[C@H](C(=O)N4CCC(CN5CCN(C(=O)COc6ccc(C)c(N7CCC(=O)NC7=O)c6)CC5)CC4)CC2)(c2ccccc2)O3)c1F (atropisomer, axis not shown)
Field: entry with larger DC50 (options P / Q ). Answer with the label corresponding to your selection. P

[1] COc1ccc(C(=O)N2CCC(C3CCN(CCNC(=O)[C@H]4CC[C@H](NC[C@]5(c6ccccc6)Oc6cc(F)c(Cl)c(-c7c(C(N)=O)ccc(OC)c7F)c6[C@@H]5C)CC4)CC3)CC2)cc1N1CCC(=O)NC1=O (atropisomer, axis not shown)
[2] COc1ccc(C(N)=O)c(-c2c(Cl)c(F)cc3c2[C@H](C)[C@@](CN[C@H]2CC[C@H](C(=O)N4CCC(OC5CCN(C(=O)c6ccc(Cl)c(N7CCC(=O)NC7=O)c6)CC5)CC4)CC2)(c2ccccc2)O3)c1F (atropisomer, axis not shown)
# compare DC50 for 1 vs 2 ; return the one with the smaller value Answer with the label corresponding to your selection. 2

[a] COc1ccc(C(=O)N2CCC(CN3CCN(C(=O)[C@H]4CC[C@H](NC[C@]5(c6ccccc6)Oc6cc(F)c(Cl)c(-c7c(C(N)=O)ccc(OC)c7F)c6[C@@H]5C)CC4)CC3)CC2)cc1N1CCC(=O)NC1=O (atropisomer, axis not shown)
[b] COc1ccc(C(N)=O)c(-c2c(Cl)c(F)cc3c2[C@H](C)[C@@](CN[C@H]2CC[C@H](C(=O)N4CCC(CC5CCN(C(=O)COc6ccc(N7CCC(=O)NC7=O)c(C)c6)CC5)CC4)CC2)(c2ccccc2)O3)c1F (atropisomer, axis not shown)
Field: entry with larger DC50 (options a / b ). Answer with the label corresponding to your selection. a

The reported numbers originate from patent US20240382600A1.
